quantity: melting point

molecule | result
O=C(C=Cc1cc2ccccc2c2ccccc12)c1cccc(O)c1 [Compound 54] | 212 to 213 °C
O=C(C=Cc1cccnc1)c1ccc(F)cc1 [Compound 53] | 126 to 127 °C
O=C(C=Cc1ccccc1)c1ccco1 [Compound 56, 1-(Furan-2-yl)-3-phenyl-2-propen-1-one] | 94 to 95 °C
COc1ccc(-c2cc(=O)c3c(OC)c(-c4c(OC)cc5oc(-c6ccc(OC)cc6)cc(=O)c5c4OC)c(OC)cc3o2)cc1 [Compound 151, 6,6″-Biapigenin hexamethylether] | 303 to 304 °C
COc1ccc(Br)c2c1C(=O)CC(c1ccccc1)O2 (stereo not drawn) [Compound 133, 5-Methoxy-8-bromo-flavanone] | 134 to 165 °C
O=C(/C=C/c1cccc(Cl)c1)c1ccccc1O [Compound 24, 3-Chloro-2′-hydroxychalcone] | 108 to 108.5 °C

* * *

// Activity % Inhibition at 12.5 μg/mL (flavones) lookup, one value per entry
Tested on: M. tuberculosis H37Rv (ATCC 27294)
Experiment: In vitro anti-tuberculosis screening, BACTEC 460 radiometric system, percent inhibition of growth
Assay type: cell-based, Mycobacterium tuberculosis
Details: Mtb H37Rv, 12.5 μg/mL, BACTEC 12B medium
quantity: Activity % Inhibition at 12.5 μg/mL (flavones) (%)

compound | quantitative.readout
O=c1c(Br)c(-c2ccccc2)oc2ccccc12 [Compound 108] | 13
COc1ccc(-c2oc3c(I)cccc3c(=O)c2O)cc1 [Compound 113] | 6
COc1ccc(-c2cc(=O)c3cc(I)ccc3o2)cc1 [Compound 107] | 15
COc1ccc(-c2cc(=O)c3ccccc3o2)cc1 [Compound 93] | 29
O=c1cc(-c2ccccc2)oc2ccc(Br)cc12 [Compound 123] | 0

* * *

Test system: M. tuberculosis H37Rv (ATCC 27294)
Assay: In vitro anti-tuberculosis screening, BACTEC 460 radiometric system, percent inhibition of growth
Format: cell-based, Mycobacterium tuberculosis
Details: Mtb H37Rv, 12.5 μg/mL, BACTEC 12B medium
# class assignment by measured Activity % Inhibition at 12.5 μg/mL (flavones): class A (below 10%), class B (10% to below 30%), class C (30% or more)

input.smiles | assigned.category
COc1ccc(-c2cc(=O)c3ccc(F)cc3o2)cc1 | class A
COc1ccc(-c2cc(=O)c3c(OC)cc(OC)cc3o2)cc1 | class B
COc1ccc(-c2oc3ccccc3c(=O)c2Br)cc1 | class B
O=c1c(I)c(-c2ccccc2)oc2ccccc12 | class A
O=c1c(O)c(-c2ccccc2)oc2ccc(I)cc12 | class C
O=c1cc(-c2ccccc2I)oc2ccccc12 | class B
O=c1c(O)c(-c2ccccc2)oc2cc(Cl)ccc12 | class C
COc1ccc(-c2oc3ccc(C(=O)O)cc3c(=O)c2O)cc1 | class A
COc1ccc(-c2oc3cc(F)ccc3c(=O)c2O)cc1 | class C
O=c1cc(-c2ccccc2)oc2cc(I)ccc12 | class B
COc1ccc(-c2oc3ccc(F)cc3c(=O)c2O)cc1 | class B

* * *

Test system: M. tuberculosis H37Rv (ATCC 27294)
Assay: In vitro anti-tuberculosis screening, BACTEC 460 radiometric system, percent inhibition of growth
Type: cell-based, Mycobacterium tuberculosis
Conditions: Mtb H37Rv, drug concentration 12.5 μg/mL
# class assignment by measured inhibition of the growth of Mtb: I (below 20%), II (20% to below 70%), III (70% or more)

compound | assigned.category
O=c1cc(-c2cccc(Cl)c2)oc2ccccc12 | I
O=C(/C=C/c1ccccc1Br)c1ccccc1O | III
O=C1CC(c2cccc(Br)c2)Oc2ccccc21 (stereo not drawn) | III
O=C(/C=C/c1ccccc1)c1cc(Cl)ccc1O | II
COc1ccc(C(=O)/C=C/c2ccccc2)c(O)c1 | III
COc1ccc(/C=C/C(=O)c2cc(I)ccc2O)cc1 | I
O=C(C=Cc1ccccc1)c1ccc(Cl)cc1O | III
COc1ccc(-c2cc(=O)c3c(OC)cc(OC)c([C@@H]4C(=O)c5c(OC)cc(OC)cc5O[C@H]4c4ccc(OC)cc4)c3o2)cc1 | III
COc1ccc(C=CC(=O)c2ccc(Br)cc2O)cc1 | II
Nc1cccc(C(=O)/C=C/c2ccccc2I)c1 | III
O=c1cc(-c2ccccc2I)oc2ccccc12 | II
COc1ccc(/C=C/C(=O)c2c(O)cc(OC)cc2OC)cc1 | II
Nc1ccc(O)c(C(=O)/C=C/c2ccccc2)c1 | I
O=c1cc(-c2ccc(Br)cc2)oc2ccccc12 | II
O=C(/C=C/c1ccc(Cl)cc1)c1ccccc1O | II
O=C(/C=C/c1ccccc1)c1ccc(I)cc1O | II
O=C(/C=C/c1ccccc1)c1cccc(Br)c1O | III
O=C(/C=C/c1ccc(I)cc1)c1ccccc1O | II
COc1ccc(/C=C/C(=O)c2cccc(I)c2O)cc1 | I
COc1ccc(C(=O)/C=C/c2cccc(I)c2)c(O)c1 | II
COc1ccc([C@@H]2CC(=O)c3c(OC)cc(OC)c([C@H]4C(=O)c5c(OC)cc(OC)cc5O[C@@H]4c4ccc(OC)cc4)c3O2)cc1 | III
O=C(O)c1ccc(O)c(C(=O)C=Cc2cccc(I)c2)c1 | I
O=c1cc(-c2ccc(I)cc2)oc2ccccc12 | II
COc1ccc(C=CC(=O)c2ccc(Cl)cc2O)cc1 | II
COc1ccc(/C=C/C(=O)c2cc(Br)ccc2O)cc1 | II

* * *

Test system: M. tuberculosis H37Rv (ATCC 27294)
Test: In vitro anti-tuberculosis screening, BACTEC 460 radiometric system, percent inhibition of growth
Type: cell-based, Mycobacterium tuberculosis
Conditions: Mtb H37Rv, 12.5 μg/mL, BACTEC 12B medium
Classify by measured Activity % Inhibition at 12.5 μg/mL (flavones): 1 (yes) if it is equal to or exceeds 1%, 0 (no) if it is smaller.

molecule | assigned.category
COc1ccc2c(=O)c(Br)c(-c3ccc(Cl)cc3)oc2c1 [Compound 103] | 1 (yes)
O=c1c(O)c(-c2cccc(Br)c2)oc2ccccc12 [Compound 80] | 1 (yes)
COc1ccc(-c2oc3ccc(Cl)cc3c(=O)c2O)cc1 [Compound 87] | 1 (yes)
COc1ccc(-c2oc3cc(F)ccc3c(=O)c2OC(C)=O)cc1 [Compound 86] | 1 (yes)
O=c1c(O)c(-c2ccccc2)oc2ccc(Br)cc12 [Compound 82] | 1 (yes)
O=c1cc(-c2ccc(I)cc2)oc2ccccc12 [Compound 84] | 1 (yes)
O=c1c(O)c(-c2ccccc2)oc2c(F)cccc12 [Compound 90] | 1 (yes)
O=C(c1ccccc1)c1ccc2c(=O)c(C(=O)c3ccccc3)c(-c3ccccc3)oc2c1 [Compound 110] | 1 (yes)
O=c1cc(-c2ccc(O)cc2)oc2ccccc12 [Compound 104] | 1 (yes)
COc1cc(OC)c2c(=O)cc(-c3ccc(OC)c(I)c3)oc2c1 [Compound 126] | 0 (no)
COc1ccc(-c2cc(=O)c3c(OC)cc(OC)c(I)c3o2)cc1 [Compound 125] | 0 (no)
O=c1cc(-c2ccccc2)oc2ccc(F)cc12 [Compound 112] | 1 (yes)
O=c1cc(-c2ccc(Cl)c([N+](=O)[O-])c2)oc2ccccc12 [Compound 95] | 1 (yes)
COc1ccc(-c2oc3cc(I)ccc3c(=O)c2O)cc1 [Compound 91] | 1 (yes)
O=c1cc(-c2cccc(Cl)c2)oc2ccccc12 [Compound 121] | 0 (no)
COc1c(-c2ccccc2)oc2ccc(Br)cc2c1=O [Compound 89] | 1 (yes)
COc1cc(OC)c2c(=O)cc(-c3ccc(O)cc3)oc2c1 [Compound 132] | 0 (no)
COc1ccc(-c2cc(=O)c3ccc(I)cc3o2)cc1 [Compound 128] | 0 (no)
COc1ccc2c(=O)cc(-c3ccccc3)oc2c1 [Compound 117] | 0 (no)

* * *

Test system: M. tuberculosis H37Rv (ATCC 27294)
Experiment: In vitro anti-tuberculosis screening, BACTEC 460 radiometric system, percent inhibition of growth
Format: cell-based, Mycobacterium tuberculosis
Settings: Mtb H37Rv, 12.5 μg/mL, BACTEC 12B medium
// Activity % Inhibition at 12.5 μg/mL (flavones) lookup, one value per entry
quantity: Activity % Inhibition at 12.5 μg/mL (flavones) (%)

input.smiles | measured.on | quantitative.readout
O=c1cc(-c2ccccc2)oc2c(I)cccc12 | M. tuberculosis H37Rv (ATCC 27294) | 5
O=c1cc(-c2ccccc2)oc2cc(Cl)ccc12 | M. tuberculosis H37Rv (ATCC 27294) | 0
COc1ccc(-c2cc(=O)c3ccc(OC)cc3o2)cc1 | M. tuberculosis H37Rv (ATCC 27294) | 0
O=c1cc(-c2ccccc2)oc2c(Br)cccc12 | M. tuberculosis H37Rv (ATCC 27294) | 66
O=c1cc(-c2cccc(I)c2)oc2ccccc12 | M. tuberculosis H37Rv (ATCC 27294) | 22
O=c1cc(-c2ccc(Br)cc2)oc2ccccc12 | M. tuberculosis H37Rv (ATCC 27294) | 26
O=c1cc(-c2ccccc2)oc2ccc(I)cc12 | M. tuberculosis H37Rv (ATCC 27294) | 0
COc1ccc(-c2cc(=O)c3cc(C(=O)O)ccc3o2)cc1 | M. tuberculosis H37Rv (ATCC 27294) | 2
O=c1cc(-c2ccccc2)oc2cc(Br)ccc12 | M. tuberculosis H37Rv (ATCC 27294) | 15
COc1ccc(-c2oc3cc(OC)cc(OC)c3c(=O)c2Br)cc1 | M. tuberculosis H37Rv (ATCC 27294) | 0
